Measured pIC50, listed per entry for reference.
- study target: hPR (Homo sapiens, UniProt P06401)
- assay details: Cotransfection assay, PR antagonist activity in CV-1 cells
- measurement setup: antagonist potency IC50
pIC50: −log10 of the molar value.
measure: pIC50

• CC1=CC(C2Oc3ccc(F)cc3-c3ccc4c(c32)C(C)=CC(C)(C)N4)CC1 (racemic) [Compound 45] = < 5.00
• CC1=CC(C2Oc3ccc(F)cc3-c3ccc4c(c32)C(C)=CC(C)(C)N4)CCC1 (single isomer, unassigned; (-)) [Compound 28] = < 5.00
• CC1=CC(C2Oc3ccc(F)cc3-c3ccc4c(c32)C(C)=CC(C)(C)N4)CCC1 (racemic) [Compound 25] = < 5.00
• COc1cc2c(cc1F)-c1ccc3c(c1C(C1C=C(C)CCC1)O2)C(C)=CC(C)(C)N3 (racemic) [Compound 65] = 6.19

---

- study target: hPR (Homo sapiens, UniProt P06401)
- Sequence (P06401 1-933): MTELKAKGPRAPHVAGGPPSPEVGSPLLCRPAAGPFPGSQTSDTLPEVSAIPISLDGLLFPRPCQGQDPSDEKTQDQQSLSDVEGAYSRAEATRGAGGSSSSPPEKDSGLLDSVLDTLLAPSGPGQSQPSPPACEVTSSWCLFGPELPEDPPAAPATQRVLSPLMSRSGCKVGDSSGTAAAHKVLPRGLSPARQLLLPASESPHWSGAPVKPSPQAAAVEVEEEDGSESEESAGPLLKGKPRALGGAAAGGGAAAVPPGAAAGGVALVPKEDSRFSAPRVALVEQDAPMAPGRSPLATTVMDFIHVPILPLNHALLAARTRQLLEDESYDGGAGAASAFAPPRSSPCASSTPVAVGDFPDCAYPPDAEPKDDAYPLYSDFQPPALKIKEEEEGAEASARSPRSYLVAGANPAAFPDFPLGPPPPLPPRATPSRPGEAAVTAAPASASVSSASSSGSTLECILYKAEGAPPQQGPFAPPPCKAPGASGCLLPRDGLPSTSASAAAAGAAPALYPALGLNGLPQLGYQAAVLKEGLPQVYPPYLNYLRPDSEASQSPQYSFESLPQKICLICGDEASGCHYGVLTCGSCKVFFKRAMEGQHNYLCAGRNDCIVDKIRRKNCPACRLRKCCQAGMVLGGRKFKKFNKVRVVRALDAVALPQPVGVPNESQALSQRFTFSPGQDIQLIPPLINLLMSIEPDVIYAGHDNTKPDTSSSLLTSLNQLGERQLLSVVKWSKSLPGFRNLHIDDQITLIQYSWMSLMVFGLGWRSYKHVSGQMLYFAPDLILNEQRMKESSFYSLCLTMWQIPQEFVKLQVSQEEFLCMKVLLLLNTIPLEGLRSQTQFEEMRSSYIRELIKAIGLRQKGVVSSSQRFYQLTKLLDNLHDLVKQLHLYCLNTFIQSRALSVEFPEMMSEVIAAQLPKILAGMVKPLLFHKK
- assay details: Cotransfection assay, PR antagonist activity in CV-1 cells
- measurement setup: antagonist potency IC50
pIC50: −log10 of the molar value.
Measured pIC50, listed per entry for reference.
measure: pIC50

- CC1=CC(C2Oc3ccc(F)cc3-c3ccc4c(c32)C(C)=CC(C)(C)N4)CCC1 (racemic) [Compound 24]: < 5.00
- CC1=CC(C2Oc3ccc(F)cc3-c3ccc4c(c32)C(C)=CC(C)(C)N4)CCC1 (single isomer, unassigned; (+)) [Compound 27]: < 5.00
- CC1=C[C@H]([C@H]2Oc3ccc(F)cc3-c3ccc4c(c32)C=CC(C)(C)N4)CCC1 (racemic): < 5.00
- CC1=CC(C)(C)Nc2ccc3c(c21)C(C1CCC(C)=C1C)Oc1c(F)cc(F)cc1-3 (racemic): < 5.00
- CC1=CC(C2Oc3ccc(F)cc3-c3ccc4c(c32)C(C)=CC(C)(C)N4)CC1 (racemic) [Compound 44]: < 5.00
- COc1cc2c(cc1F)-c1ccc3c(c1C(C1C=C(C)CCC1)O2)C(C)=CC(C)(C)N3 (racemic) [Compound 64]: 5.72
- CC1=C[C@@H]([C@H]2Oc3ccc(F)cc3-c3ccc4c(c32)C=CC(C)(C)N4)CCC1 (racemic): < 5.00
